test_target: UniProt Q9YQ12
test_summary: Inhibition of HIV1 protease expressed in Escherichia coli using Arg-Glu (EDANS)-Ser-Gln-Asn-Tyr-Pro-Ile-Val-Gln-Lys(DABCYL)-Arg as substrate preincubated for 20 to 30 mins followed by substrate addition and measured for 10 mins by FRET assay
pIC50 listing for selected compounds.
The quantity pIC50 is defined as the negative base-10 logarithm of the molar concentration.

// solved cases for pIC50 follow
[[record]]
item_smiles = "CC(C)CN(C[C@@H](O)[C@H](Cc1ccccc1)NC(=O)[C@]1(C)CC[C@H]2C3=CC(=O)[C@@H]4[C@@]5(C)CC[C@H](O)C(C)(C)[C@@H]5CC[C@@]4(C)[C@]3(C)CC[C@@]2(C)C1)S(=O)(=O)c1ccc(N)cc1"
value_type = "pIC50"
numeric_result = 6.24

[[record]]
item_smiles = "C=C(C)[C@@H]1CC[C@]2(C(=O)N[C@@H](Cc3ccccc3)[C@H](O)CN(CC(C)C)S(=O)(=O)c3ccc(N)cc3)CC[C@]3(C)[C@H](CC[C@@H]4[C@@]5(C)CC[C@H](O)C(C)(C)[C@@H]5CC[C@]43C)[C@@H]12"
value_type = "pIC50"
numeric_result = 6.21


Consider now this further compound.
Ask | Report measured pIC50; entry is C=C(C)[C@@H]1CC[C@]2(C(=O)N[C@@H](Cc3ccccc3)[C@H](O)CN(CC(C)C)S(=O)(=O)c3ccc([N+](=O)[O-])cc3)CC[C@]3(C)[C@H](CC[C@@H]4[C@@]5(C)CC[C@H](O)C(C)(C)[C@@H]5CC[C@]43C)[C@@H]12
Reply | 5.98

----------
IC50 listing for selected molecules.
test_target: Protease (Human immunodeficiency virus 1)
Sequence (Q9YQ12 whole entry): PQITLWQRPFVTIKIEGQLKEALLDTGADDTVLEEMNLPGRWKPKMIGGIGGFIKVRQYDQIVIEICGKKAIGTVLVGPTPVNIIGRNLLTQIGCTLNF
test_summary: Inhibition of HIV1 protease expressed in Escherichia coli using Arg-Glu (EDANS)-Ser-Gln-Asn-Tyr-Pro-Ile-Val-Gln-Lys(DABCYL)-Arg as substrate preincubated for 20 to 30 mins followed by substrate addition and measured for 10 mins by FRET assay
Reply with the number and its unit after it.

[[record]]
item_smiles = "COc1ccc(S(=O)(=O)N(CC(C)C)C[C@@H](O)[C@H](Cc2ccccc2)NC(=O)[C@]23CCC(C)(C)C[C@H]2C2=CC[C@@H]4[C@@]5(C)CC[C@H](O)C(C)(C)[C@@H]5CC[C@@]4(C)[C@]2(C)CC3)cc1"
result = "240 nM"

[[record]]
item_smiles = "COc1ccc(S(=O)(=O)N(CC(C)C)C[C@@H](O)[C@H](Cc2ccccc2)NC(=O)[C@]2(C)CC[C@H]3C4=CC(=O)[C@@H]5[C@@]6(C)CC[C@H](O)C(C)(C)[C@@H]6CC[C@@]5(C)[C@]4(C)CC[C@@]3(C)C2)cc1"
result = "480 nM"

[[record]]
item_smiles = "CC(C)CN(C[C@@H](O)[C@H](Cc1ccccc1)NC(=O)[C@]1(C)CC[C@@H]2C3=CC(=O)[C@@H]4[C@@]5(C)CC[C@H](O)C(C)(C)[C@@H]5CC[C@@]4(C)[C@]3(C)CC[C@@]2(C)C1)S(=O)(=O)c1ccc(N)cc1"
result = "490 nM"


Ask | Report measured IC50; entry is CC(C)CN(C[C@@H](O)[C@H](Cc1ccccc1)NC(=O)[C@]12CC[C@@H](C)[C@H](C)[C@H]1C1=CC[C@@H]3[C@@]4(C)CC[C@H](O)C(C)(C)[C@@H]4CC[C@@]3(C)[C@]1(C)CC2)S(=O)(=O)c1ccc(N)cc1
Reply | 120 nM

----------
test_target: Protease (Human immunodeficiency virus 1)
test_summary: Inhibition of HIV1 protease expressed in Escherichia coli using Arg-Glu (EDANS)-Ser-Gln-Asn-Tyr-Pro-Ile-Val-Gln-Lys(DABCYL)-Arg as substrate preincubated for 20 to 30 mins followed by substrate addition and measured for 10 mins by FRET assay
value_type: IC50 (nM)
Report only the number, with the unit nM understood.

[[record]]
item_smiles = "CC(C)CN(C[C@@H](O)[C@H](Cc1ccccc1)NC(=O)[C@]12CCC(C)(C)C[C@H]1C1=CC[C@@H]3[C@@]4(C)CC[C@H](O)C(C)(C)[C@@H]4CC[C@@]3(C)[C@]1(C)CC2)S(=O)(=O)c1ccc(N)cc1"
test_target = "Protease (Human immunodeficiency virus 1)"
value_type = "IC50"
value_unit = "nM"
numeric_result = 170


Ask | Report measured IC50; entry is CC(C)CN(C[C@@H](O)[C@H](Cc1ccccc1)NC(=O)[C@]12CCC(C)(C)C[C@H]1C1=CC[C@@H]3[C@@]4(C)CC[C@H](O)C(C)(C)[C@@H]4CC[C@@]3(C)[C@]1(C)CC2)S(=O)(=O)c1ccc([N+](=O)[O-])cc1
Reply | 150

----------
// each record: one item and its pIC50 for Protease (Human immunodeficiency virus 1, UniProt Q9YQ12)
The quantity pIC50 is defined as the negative base-10 logarithm of the molar concentration.

[[record]]
item_smiles = "COc1ccc(S(=O)(=O)N(CC(C)C)C[C@@H](O)[C@H](Cc2ccccc2)NC(=O)[C@]23CC[C@@H](C)[C@H](C)[C@H]2C2=CC[C@@H]4[C@@]5(C)CC[C@H](O)C(C)(C)[C@@H]5CC[C@@]4(C)[C@]2(C)CC3)cc1"
numeric_result = 6.34


Ask | Report measured pIC50; entry is CC(C)CN(C[C@@H](O)[C@H](Cc1ccccc1)NC(=O)[C@]12CC[C@@H](C)[C@H](C)[C@H]1C1=CC[C@@H]3[C@@]4(C)C[C@@H](O)[C@H](O)[C@@](C)(CO)[C@@H]4CC[C@@]3(C)[C@]1(C)CC2)S(=O)(=O)c1ccc(N)cc1
Reply | 6.52
